Assay: Oral bioavailability in CD-1 mouse at 25 mg/kg
Type: ADME, organism-based
Settings: in vivo
Property: bioavailability (%)
Express it in %; write the number only.

Reported bioavailability for COc1ccc(OC)c(CNc2ccc3nc(N)nc(N)c3c2Cl)c1 was 100

====

Target: UniProtKB P00374
Sequence (P00374 whole entry): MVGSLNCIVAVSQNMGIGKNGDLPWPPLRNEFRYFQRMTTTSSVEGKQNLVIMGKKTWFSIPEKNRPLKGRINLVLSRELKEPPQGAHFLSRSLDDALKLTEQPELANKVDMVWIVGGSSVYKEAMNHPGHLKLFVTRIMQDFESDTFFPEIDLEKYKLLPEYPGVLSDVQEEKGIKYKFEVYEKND
Test: Binding affinity to human recombinant DHFR expressed in Escherichia coli BL21(DE3) by competitive binding assay
Recorded pKi values for a group of compounds are listed next.
API: returns pKi as number; meaning -log10 of concentration in mol/L.

Item smiles | pKi
CC1(C)N=C(N)N=C(N)N1OCCCOc1cc(Cl)c(Cl)cc1Cl | 8.11

From here, focus on the item given below.
Entry under test: COc1ccc(OC)c(CNc2ccc3nc(N)nc(N)c3c2Cl)c1 . Its pKi was 7.99
